What EC50 was measured for each of the following?
molecular target: CFTR G551D/ΔF508 (Homo sapiens, UniProt P13569, G551D); assay: TECC assay, primary bronchial epithelial cells, CFTR G551D/ΔF508; details: primary bronchial epithelial cells heterozygous G551D/ΔF508, acute mode, increase in Isc after forskolin
Sequence (P13569 whole entry F508del/G551D): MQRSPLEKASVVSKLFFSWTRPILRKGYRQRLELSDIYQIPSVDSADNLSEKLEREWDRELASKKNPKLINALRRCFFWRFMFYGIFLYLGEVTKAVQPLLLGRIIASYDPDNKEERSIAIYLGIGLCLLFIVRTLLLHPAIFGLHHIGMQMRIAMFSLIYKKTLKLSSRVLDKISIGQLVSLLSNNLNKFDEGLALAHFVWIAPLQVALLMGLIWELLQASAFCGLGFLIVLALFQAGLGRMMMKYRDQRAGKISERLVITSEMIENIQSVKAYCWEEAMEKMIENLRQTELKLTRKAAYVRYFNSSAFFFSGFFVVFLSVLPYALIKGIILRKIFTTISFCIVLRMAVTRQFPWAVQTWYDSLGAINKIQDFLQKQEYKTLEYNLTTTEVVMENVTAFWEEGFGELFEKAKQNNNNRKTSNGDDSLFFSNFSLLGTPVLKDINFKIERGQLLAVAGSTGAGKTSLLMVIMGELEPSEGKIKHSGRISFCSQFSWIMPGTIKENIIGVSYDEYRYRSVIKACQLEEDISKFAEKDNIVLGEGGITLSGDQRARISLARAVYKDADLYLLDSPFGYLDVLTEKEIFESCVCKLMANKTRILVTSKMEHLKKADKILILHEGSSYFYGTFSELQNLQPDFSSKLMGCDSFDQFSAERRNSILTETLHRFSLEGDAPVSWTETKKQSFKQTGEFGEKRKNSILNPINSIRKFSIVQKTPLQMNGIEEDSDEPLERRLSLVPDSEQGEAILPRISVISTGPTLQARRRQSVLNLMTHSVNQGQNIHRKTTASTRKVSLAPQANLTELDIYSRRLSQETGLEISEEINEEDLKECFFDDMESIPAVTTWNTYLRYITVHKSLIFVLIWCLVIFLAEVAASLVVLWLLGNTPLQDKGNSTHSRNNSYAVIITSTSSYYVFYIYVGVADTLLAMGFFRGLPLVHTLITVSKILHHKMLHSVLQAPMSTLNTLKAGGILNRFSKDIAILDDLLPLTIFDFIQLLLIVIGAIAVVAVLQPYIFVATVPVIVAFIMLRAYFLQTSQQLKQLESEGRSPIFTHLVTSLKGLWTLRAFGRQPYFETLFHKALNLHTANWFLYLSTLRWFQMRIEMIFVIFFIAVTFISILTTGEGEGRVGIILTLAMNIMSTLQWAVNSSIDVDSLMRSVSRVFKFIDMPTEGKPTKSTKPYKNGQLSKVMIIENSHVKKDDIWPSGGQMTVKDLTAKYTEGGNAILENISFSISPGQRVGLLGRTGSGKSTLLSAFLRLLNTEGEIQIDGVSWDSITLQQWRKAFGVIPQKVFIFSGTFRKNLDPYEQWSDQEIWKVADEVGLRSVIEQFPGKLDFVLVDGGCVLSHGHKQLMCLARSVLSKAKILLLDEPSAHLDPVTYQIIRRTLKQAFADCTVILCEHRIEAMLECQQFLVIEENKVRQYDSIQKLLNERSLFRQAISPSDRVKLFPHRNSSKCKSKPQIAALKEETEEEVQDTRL
Express it in nM; write the number only.

Task: Requested read-out: EC50. Entry: C[C@H](O)CNC(=O)c1ncc(S(=O)(=O)c2ccc(C(F)(F)F)cc2)cc1N [Compound 100]
Output: 2380

Task: Given the entry Nc1cc(S(=O)(=O)c2ccc(OC(F)(F)F)cc2)cnc1C(=O)NCC1CCCO1 (stereo not shown) [Compound 7] , report its measured EC50.
Output: 7720

Task: What value of EC50 has been recorded for this entry: Nc1cc(S(=O)(=O)c2ccc(OC(F)(F)F)cc2)cnc1C(=O)NCC(O)COCC1CC1 (stereo not shown) [Compound 31]
Output: 632

Task: For the molecule shown here, Nc1cc(S(=O)(=O)c2ccc(OC(F)(F)F)cc2)cnc1C(=O)NCCC(O)C(F)(F)F (stereo not shown) [Compound 52] , give the reported EC50.
Output: 461

* * *

molecular target: CFTR G551D mutant (Homo sapiens, UniProt P13569, G551D); construct: expressed in transfected cells; host or cells: HEK293 cells, reverse transfection with plasmids; experiment: YFP-halide influx assay for the CFTR-G551D mutation (HEK293 cells); assay type: cell-based; conditions: forskolin 10.67 μM
Sequence (P13569 whole entry G551D): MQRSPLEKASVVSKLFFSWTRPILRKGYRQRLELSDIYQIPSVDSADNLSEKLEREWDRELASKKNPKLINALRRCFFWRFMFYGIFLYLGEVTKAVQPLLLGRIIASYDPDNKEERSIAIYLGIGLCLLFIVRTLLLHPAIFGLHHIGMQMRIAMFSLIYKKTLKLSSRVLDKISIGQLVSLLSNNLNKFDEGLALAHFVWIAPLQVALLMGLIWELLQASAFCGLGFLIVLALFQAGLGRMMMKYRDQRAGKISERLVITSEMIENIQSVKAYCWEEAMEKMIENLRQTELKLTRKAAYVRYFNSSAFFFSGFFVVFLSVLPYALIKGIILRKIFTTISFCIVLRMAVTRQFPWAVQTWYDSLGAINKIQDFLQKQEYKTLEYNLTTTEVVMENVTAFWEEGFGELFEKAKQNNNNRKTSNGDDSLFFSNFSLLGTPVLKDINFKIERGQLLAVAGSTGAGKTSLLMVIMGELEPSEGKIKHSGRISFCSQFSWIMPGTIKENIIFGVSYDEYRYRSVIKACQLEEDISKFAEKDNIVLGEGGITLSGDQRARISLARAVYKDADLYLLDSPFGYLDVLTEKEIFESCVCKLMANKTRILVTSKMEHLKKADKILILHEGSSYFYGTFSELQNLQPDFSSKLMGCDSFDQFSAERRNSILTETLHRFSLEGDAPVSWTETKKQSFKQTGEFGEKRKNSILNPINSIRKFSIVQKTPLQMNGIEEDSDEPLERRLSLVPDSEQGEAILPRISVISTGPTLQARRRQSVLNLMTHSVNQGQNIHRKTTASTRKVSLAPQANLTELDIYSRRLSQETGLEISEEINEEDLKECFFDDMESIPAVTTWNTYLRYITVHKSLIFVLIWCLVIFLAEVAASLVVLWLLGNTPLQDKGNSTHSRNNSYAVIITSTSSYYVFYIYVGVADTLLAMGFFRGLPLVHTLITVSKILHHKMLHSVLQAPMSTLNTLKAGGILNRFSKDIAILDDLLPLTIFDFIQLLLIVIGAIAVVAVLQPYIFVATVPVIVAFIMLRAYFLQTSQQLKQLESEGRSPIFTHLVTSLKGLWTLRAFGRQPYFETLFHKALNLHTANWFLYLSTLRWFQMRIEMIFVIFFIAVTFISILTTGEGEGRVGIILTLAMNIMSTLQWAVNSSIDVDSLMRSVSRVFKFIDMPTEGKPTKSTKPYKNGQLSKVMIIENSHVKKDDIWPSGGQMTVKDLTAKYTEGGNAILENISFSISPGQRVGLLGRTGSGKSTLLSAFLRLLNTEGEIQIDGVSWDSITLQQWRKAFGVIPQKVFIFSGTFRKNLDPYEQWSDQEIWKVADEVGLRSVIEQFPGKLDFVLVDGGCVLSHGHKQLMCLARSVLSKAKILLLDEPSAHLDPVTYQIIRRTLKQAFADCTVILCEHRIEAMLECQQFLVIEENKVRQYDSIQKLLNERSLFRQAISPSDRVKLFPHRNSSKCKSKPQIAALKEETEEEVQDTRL
property_name: pEC50
Scale explanation: pEC50 corresponds to minus log10 of a concentration expressed in moles per litre.

Task: Need pEC50, item CC1CCCN(S(=O)(=O)c2cnc(C(=O)NCC(O)C(F)(F)F)c(N)c2)C1 (stereo not shown)
Output: 6.19

Task: Any idea what its pEC50 is? The compound is `Nc1cc(S(=O)(=O)c2ccc(F)cc2)c(-c2ccc(F)cc2)nc1C(=O)NC[C@@H](O)C(F)(F)F`
Output: 5.95

Task: Query: pEC50; subject: CC1CC(C)CN(S(=O)(=O)c2cnc(C(=O)NCC(O)C(F)(F)F)c(N)c2)C1 (stereo not shown)
Output: 5.95

Task: For `C[C@H](O)CNC(=O)c1ncc(S(=O)(=O)c2ccccc2OC(F)(F)F)cc1N` , what is its reported pEC50?
Output: 6.10

Task: Which pEC50 reading was recorded for the compound Nc1cc(S(=O)(=O)c2ccccc2)cnc1C(=O)NCC(O)C(F)(F)F (stereo not shown) ?
Output: 6.25

Task: What measured pEC50 goes with `Nc1cc(S(=O)(=O)c2ccc(OC(F)(F)F)cc2)cnc1C(=O)N1CC(O)C1` ?
Output: 5.71

Task: Bench note: what pEC50 did `Nc1cc(S(=O)(=O)c2ccc(C(F)(F)F)cc2)cnc1C(=O)N1CC2(CCCOC2)C1` show?
Output: 5.71

Task: For the compound shown here, `Nc1cc(S(=O)(=O)c2ccc(C(F)(F)F)cc2)cnc1C(=O)NC[C@H]1CCOC1` , give the reported pEC50.
Output: 5.80

Task: Dear colleague, I am looking for the recorded pEC50 of the following compound: `CC(C)[C@@H](CO)NC(=O)c1ncc(S(=O)(=O)c2ccc(OC(F)(F)F)cc2)cc1N`
Output: 6.29

Task: Recorded pEC50 for `CC(C)(CCO)CNC(=O)c1ncc(S(=O)(=O)c2ccc(OC(F)(F)F)cc2)cc1N` , please?
Output: 5.83

Task: Query (compound): `Nc1cc(S(=O)(=O)c2ccc(C(F)(F)F)cc2)cnc1C(=O)NC[C@H](O)COCC(F)(F)F` ; field requested: pEC50
Output: 6.76

* * *

target: CFTR G551D mutant (Homo sapiens, UniProt P13569, G551D); assay: YFP-halide influx assay for the CFTR-G551D mutation (HEK293 cells); details: forskolin 10.67 μM
pEC50: −log10 of the molar value.
Rule: MET for pEC50 not less than 6, NOT MET for anything less.

Task: Dear colleague, could you confirm whether `Nc1cc(S(=O)(=O)c2ccc(C(F)(F)F)cc2F)cnc1C(=O)NC[C@H]1CCOC1` has pEC50 at or above 6?
Output: NOT MET

Task: Is pEC50 at least 6? Consider `Nc1cc(S(=O)(=O)c2ccc(C(F)(F)F)cc2)cnc1C(=O)N1CC(C(F)(F)F)C1`
Output: NOT MET

Task: Test whether the compound `NC(=O)c1ncc(S(=O)(=O)c2ccc(OC(F)(F)F)cc2)cc1N` records pEC50 of 6 or higher.
Output: MET

Task: # bool: pEC50 of `C[C@H](O)CNC(=O)c1nc(-c2ccc(F)cc2)c(S(=O)(=O)C2CCCC2)cc1N` >= 6
Output: NOT MET

Task: Confirm if pEC50 reported for the compound `CCS(=O)(=O)c1cc(N)c(C(=O)NC[C@H](C)O)nc1-c1ccc(F)cc1` is 6 or above.
Output: NOT MET

* * *

target: CFTR ΔF508 mutant (Homo sapiens, UniProt P13569, DEL508-508); construct: expressed in transfected cells; host or cells: CFBE41o- cells, adenoviral transduction; test: YFP-halide influx assay for the CFTR-ΔF508 mutation (CFBE41o- cells); assay type: cell-based; details: forskolin 10.67 μM
Sequence (P13569 with tags, fused parts or gaps DEL508-508): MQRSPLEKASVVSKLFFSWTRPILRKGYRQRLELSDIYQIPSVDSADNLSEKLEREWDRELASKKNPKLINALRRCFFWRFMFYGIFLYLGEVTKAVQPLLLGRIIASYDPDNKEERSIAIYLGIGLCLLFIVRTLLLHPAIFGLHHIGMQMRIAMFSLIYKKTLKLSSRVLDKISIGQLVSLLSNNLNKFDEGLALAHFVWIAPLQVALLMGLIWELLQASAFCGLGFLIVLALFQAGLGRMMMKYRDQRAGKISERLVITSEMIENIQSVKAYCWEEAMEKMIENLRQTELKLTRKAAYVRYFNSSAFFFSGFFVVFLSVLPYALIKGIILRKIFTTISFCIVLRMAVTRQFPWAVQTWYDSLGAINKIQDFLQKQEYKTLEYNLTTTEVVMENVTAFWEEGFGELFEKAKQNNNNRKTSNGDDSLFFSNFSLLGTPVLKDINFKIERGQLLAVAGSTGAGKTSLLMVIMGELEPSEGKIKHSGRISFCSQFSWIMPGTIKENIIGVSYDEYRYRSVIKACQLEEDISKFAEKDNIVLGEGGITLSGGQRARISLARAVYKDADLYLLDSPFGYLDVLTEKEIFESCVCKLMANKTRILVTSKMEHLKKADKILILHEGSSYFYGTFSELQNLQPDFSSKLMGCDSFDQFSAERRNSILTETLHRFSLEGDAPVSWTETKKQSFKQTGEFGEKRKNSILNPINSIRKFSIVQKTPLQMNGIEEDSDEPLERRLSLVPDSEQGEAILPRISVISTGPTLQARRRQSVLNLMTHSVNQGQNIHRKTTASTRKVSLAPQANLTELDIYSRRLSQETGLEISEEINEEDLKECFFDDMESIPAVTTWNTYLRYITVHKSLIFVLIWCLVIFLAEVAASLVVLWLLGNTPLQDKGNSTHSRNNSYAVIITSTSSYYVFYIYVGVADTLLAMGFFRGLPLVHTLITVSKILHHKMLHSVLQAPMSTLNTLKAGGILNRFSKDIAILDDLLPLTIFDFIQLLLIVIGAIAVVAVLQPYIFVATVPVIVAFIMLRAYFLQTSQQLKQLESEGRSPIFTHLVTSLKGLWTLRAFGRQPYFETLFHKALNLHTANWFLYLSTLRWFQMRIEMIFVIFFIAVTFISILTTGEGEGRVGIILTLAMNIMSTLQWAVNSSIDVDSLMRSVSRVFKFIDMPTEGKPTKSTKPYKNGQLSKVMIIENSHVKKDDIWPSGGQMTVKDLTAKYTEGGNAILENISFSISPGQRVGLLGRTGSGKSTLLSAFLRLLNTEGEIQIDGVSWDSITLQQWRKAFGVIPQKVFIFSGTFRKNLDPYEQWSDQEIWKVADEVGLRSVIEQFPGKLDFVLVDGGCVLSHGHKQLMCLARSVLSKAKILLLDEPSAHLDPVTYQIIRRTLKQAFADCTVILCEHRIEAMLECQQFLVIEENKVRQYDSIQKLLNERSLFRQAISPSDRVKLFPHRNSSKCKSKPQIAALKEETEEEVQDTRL
property_name: % Activation (%)
Respond with the bare value in %.

Task: Query the reported % Activation for CFTR ΔF508 mutant (Homo sapiens, UniProt P13569, DEL508-508); item: COCCOCC(O)CNC(=O)c1ncc(S(=O)(=O)c2ccc(C(F)(F)F)cc2)cc1N (centres unmarked) [Compound 221]
Output: 101.7

Task: What reported % Activation corresponds to Nc1cc(S(=O)(=O)c2ccc(OC(F)(F)F)cc2)cnc1C(=O)NC1COC2(CCCC2)C1 (centres unmarked) [Compound 150] on CFTR ΔF508 mutant (Homo sapiens, UniProt P13569, DEL508-508)?
Output: 116.0

Task: Recall the recorded % Activation for Nc1cc(S(=O)(=O)c2ccc(C(F)(F)F)cc2)cnc1C(=O)N[C@H]1CCC[C@@H]1O [Compound 215] with CFTR ΔF508 mutant (Homo sapiens, UniProt P13569, DEL508-508) and state it.
Output: 109.8

Task: Recorded % Activation for CC(C)(C)C(O)CNC(=O)c1ncc(S(=O)(=O)c2ccc(OC(F)(F)F)cc2)cc1N (centres unmarked) [Compound 16] with CFTR ΔF508 mutant (Homo sapiens, UniProt P13569, DEL508-508), please?
Output: 106.5

Task: Give recorded % Activation with CFTR ΔF508 mutant (Homo sapiens, UniProt P13569, DEL508-508) for the following compound: Nc1cc(S(=O)(=O)c2ccc(F)cc2)cnc1C(=O)N1CC(O)(C(F)(F)F)C1 [Compound 176]
Output: 93.4

Task: Fill in the recorded % Activation for this compound, with CFTR ΔF508 mutant (Homo sapiens, UniProt P13569, DEL508-508) as test system: Nc1cc(S(=O)(=O)c2ccc(OC(F)(F)F)cc2)cnc1C(=O)N1CCC1 [Compound 65]
Output: 119.0

Task: Give recorded % Activation with CFTR ΔF508 mutant (Homo sapiens, UniProt P13569, DEL508-508) for the following compound: COCCC(C)(O)CNC(=O)c1ncc(S(=O)(=O)c2ccc(C(F)(F)F)cc2F)cc1N (centres unmarked) [Compound 163]
Output: 97.0

Task: What reported % Activation corresponds to Nc1cc(S(=O)(=O)c2ccc(C(F)(F)F)cc2)cnc1C(=O)N1CC2(CCCOC2)C1 [Compound 295] on CFTR ΔF508 mutant (Homo sapiens, UniProt P13569, DEL508-508)?
Output: 102.3

* * *

target: CFTR ΔF508 mutant (Homo sapiens, UniProt P13569, DEL508-508); experiment: YFP-halide influx assay for the CFTR-ΔF508 mutation (CFBE41o- cells); conditions: forskolin 10.67 μM, from (1−F/F0) vs concentration plot
property_name: pEC50
Note: pEC50 values are expressed as the negative base-10 logarithm of concentration in M.

Task: What value of pEC50 has been recorded for this entry: Nc1cc(S(=O)(=O)c2ccc(OC(F)(F)F)cc2)cnc1C(=O)N1CCC(F)(F)C1 [Compound 203]
Output: 7.33

Task: # input molecule: C[C@@H](O)CNC(=O)c1ncc(S(=O)(=O)c2ccc(OC(F)(F)F)cc2)cc1N [Compound 20] ; wanted: its pEC50
Output: 7.53

Task: Fill in the blank: the reported pEC50 of CN(CCC(F)(F)F)S(=O)(=O)c1cnc(C(=O)NCC(O)C(F)(F)F)c(N)c1 (stereo not drawn) [Compound 225] is ____.
Output: 7.51

Task: Give the measured pEC50 of Nc1cc(S(=O)(=O)c2ccc(C(F)(F)F)cc2)cnc1C(=O)NCCC(F)(F)F [Compound 212] .
Output: 7.33

Task: I'd like to know its pEC50. The molecule in question is Nc1cc(S(=O)(=O)c2ccccc2)cnc1C(=O)N1CC(O)(C(F)(F)F)C1 [Compound 255]
Output: 8.89

Task: Given Nc1cc(S(=O)(=O)N2CCOc3ccccc32)cnc1C(=O)NCC(O)C(F)(F)F (stereo not drawn) [Compound 109] , state its recorded pEC50.
Output: 8.44

Task: Record request: pEC50 value, item COc1ccc(C(CO)NC(=O)c2ncc(S(=O)(=O)c3ccc(OC(F)(F)F)cc3)cc2N)cc1 (stereo not drawn) [Compound 96]
Output: 6.61

Task: For the molecule Nc1cc(S(=O)(=O)N2CCCC(F)(F)C2)cnc1C(=O)NCC(O)C(F)(F)F (stereo not drawn) [Compound 183] , what pEC50 is on record?
Output: 7.68

Task: # query: pEC50 of entry Nc1cc(S(=O)(=O)c2ccc(C(F)(F)F)cc2F)cnc1C(=O)NCCO [Compound 219]
Output: 7.72

Task: If you can, please state the reported pEC50 value of COCC(O)CNC(=O)c1ncc(S(=O)(=O)c2ccccc2OC(F)(F)F)cc1N (stereo not drawn) [Compound 80] .
Output: 8.49

Task: What does the record list as pEC50 for Nc1cc(S(=O)(=O)c2ccccc2OC(F)(F)F)cnc1C(=O)NCCO [Compound 75] ?
Output: 8.12

Task: Item CC[C@@H](CO)NC(=O)c1ncc(S(=O)(=O)c2ccc(OC(F)(F)F)cc2)cc1N [Compound 142] has what recorded pEC50?
Output: 7.92

Task: So what's the measured pEC50 for this one? Nc1cc(S(=O)(=O)c2ccc(C(F)(F)F)cc2)cnc1C(=O)N[C@H]1COCC[C@H]1O [Compound 257]
Output: 7.57

Task: Query (molecule): CC1(C)CN(S(=O)(=O)c2cnc(C(=O)NCC(O)C(F)(F)F)c(N)c2)C1 (stereo not drawn) [Compound 199] ; field requested: pEC50
Output: 7.67

Task: So what's the measured pEC50 for this one? Nc1cc(S(=O)(=O)c2ccc(C(F)(F)F)cc2)cnc1C(=O)NC[C@H]1CCOC1 [Compound 101]
Output: 7.19

Task: Record request: pEC50 value, item COCC(O)CNC(=O)c1ncc(S(=O)(=O)N2CCC[C@@H]2C)cc1N (stereo partly drawn) [Compound 276]
Output: 6.96

Task: Name the recorded pEC50 for CC(C)C1(O)CN(C(=O)c2ncc(S(=O)(=O)c3ccc(C(F)(F)F)cc3F)cc2N)C1 [Compound 162] .
Output: 8.57

Task: Any idea what its pEC50 is? The molecule is CC(C)c1ccc(S(=O)(=O)c2cnc(C(=O)NCC(O)C(F)(F)F)c(N)c2)cc1 (stereo not drawn) [Compound 246]
Output: 8.41
